Hi there, I'd appreciate the recorded growth for every entry that follows.
System: PC-3 prostate
assayName: NCI-60 one-dose screen, 48 h (100 = growth as untreated, 0 = no growth, -100 = all killed)
measurementParameters: 10 µM unless noted
The panel holds about 83,000 compounds, 20% with a hit somewhere; the sample as a whole holds those more often.
Answers are plain numbers, in %.

{"compound": "Cc1cc(C)c(NC(=O)c2sc3nc4c(cc3c2N)CCCCCC4)c(C)c1", "testedOn": "PC-3 prostate", "growth, %": 47.9}

List reported growth for each of these compounds:
1. c1ccc(-c2cn3ccnc3c(-c3ccc4c(c3)ncn4C3CCCCC3)n2)cc1
2. CC(=O)c1cc2c(N)c(C(=O)Nc3ccccn3)sc2nc1C
3. C#Cc1ccccc1NC(=O)c1sc2nc3c(cc2c1N)CCCCCC3
4. Cc1[nH]c2ncnc(Oc3ccc(NC(=O)Nc4ccc(Cl)c(C(F)(F)F)c4)cc3)c2c1C
5. Nc1n[nH]c2cccc(C#Cc3cccc(NC(=O)c4cc(N5CCOCC5)cc(C(F)(F)F)c4)c3)c12
6. Cn1cc(-c2ccc3c(c2)ncn3-c2ccc(CC(=O)Nc3cc(C(C)(C)C)on3)cc2)cn1
7. O=C1CCC23OC(C(O)c4ccccc4N12)C1C(Br)=NOC13 (stereo not given)
8. O=C(NCc1ccccc1)c1ccc2c(c1)NC(=O)[C@@H]1CCCN21

Result string:
1: 86.5; 2: 99.3; 3: 77.4; 4: 35; 5: 69; 6: 43.5; 7: 99.2; 8: 103

Query string: Kindly indicate its recorded growth. Item: CCOc1ccc(C2N(c3cc(OC)c(OC)c(OC)c3)C(=O)C2(F)F)cc1 (stereo not given)
Result string: 37.3

###

Hi there, I'd appreciate the recorded growth for every entry that follows.
System: NCI-H23 lung
assayName: NCI-60 one-dose screen, 48 h (100 = growth as untreated, 0 = no growth, -100 = all killed)
measurementParameters: 10 µM unless noted
This is part of a sample that, as a whole, favours compounds with a hit. Of some 83,000 tested, about 20% had one in any assay.
Numbers only, in %.

Take a look at these entries with their results.
{"compound": "CNC(=O)c1cc(Oc2ccc3c(c2)sc2nc(-c4ccc(NC(C)=O)cc4)cn23)ccn1", "reportedValue": 60.1}
{"compound": "O=C(Nc1ccc(N=Cc2ccccc2O)cc1)NC1C=c2ccccc2=CC1 (stereo not given)", "reportedValue": 100}
{"compound": "C[C@H](Oc1cc(-c2cnn(C3CCNCC3)c2)cnc1N)c1c(Cl)ccc(F)c1Cl", "reportedValue": 71.6}
{"compound": "O=C(Nc1cc(=O)[nH]c(=O)[nH]1)C(Cl)Cl", "reportedValue": 107}
{"compound": "O=Cc1[nH]c(Sc2ccccc2)c2ccccc12", "reportedValue": 67.2}

List reported growth for each of these compounds:
1. CN(C)C1=NCCN1
2. COc1cc2c(cc1OCCCOc1cc3c(cc1OC)C(=O)N1CC(F)(F)C[C@H]1C=N3)N=C[C@@H]1CC(F)(F)CN1C2=O
3. Cc1cnc(SCc2ccc(Cl)cc2)[nH]c1=S
4. C#C[C@@]1(O)[C@@H](CO)O[C@@H](n2cc(I)c3c(N)ncnc32)[C@@H]1O

Result string:
1: 99.3; 2: 5.01; 3: 94.8; 4: -14.5

List reported growth for each of these compounds:
1. COC(=O)CCc1n(Cc2ccc3ccccc3c2)c2ccccc2[n+]1Cc1ccc2ccccc2c1
2. C=C1C(=O)O[C@H]2[C@H]1CC/C(COC(=O)/C=C/c1cccnc1)=C\CC[C@@]1(C)O[C@@H]21
3. CC(=O)[C@@H]1CC[C@]2(C(=O)O)CC[C@]3(C)[C@H](CC[C@@H]4[C@@]5(C)Cc6c([nH]c7ccccc67)C(C)(C)[C@@H]5CC[C@]43C)[C@@H]12
4. O=C(O)c1cn(C2CC2)c2cc(N3CCN(C(=O)CSc4nnc(-c5ccc(Cl)cc5)n4-c4ccccc4)CC3)c(F)cc2c1=O
5. COC1=CC2C=C(C3N(c4ccccc4)NC(=O)[C@@H]4CCCN34)C(=O)NC2C=C1 (stereo not given in full)
6. O=C1NN(c2ccccc2)C(c2ccc3c(c2)OCO3)N2CCC[C@@H]12 (stereo not given in full)

Result string:
[-7.39, 56.2, 54.4, 96.2, 89.7, 88.2]
